From: patent US7538073B2

PROTOCOL DETAILS: logP by HPLC, reversed-phase column (C 18), EEC Directive 79/831 Annex V.A8
Assay type: physicochemical
CONDITION: reversed-phase HPLC column (C 18), acidic range pH 2.3, 0.1% aqueous phosphoric acid/acetonitrile gradient, 43° C.
PARAMETER: chromatographic logP

Example compounds with recorded chromatographic logP:
CCCCC(CC)c1ccccc1NC(=O)c1c(C)nn(C)c1F (stereo not shown) [Example I-31] :: 3.85
Cc1nn(C)c(F)c1C(=O)Nc1ccccc1C#CC(C)C [Example I-53] :: 3.59
Cc1nn(C)c(F)c1C(=O)Nc1ccccc1C(C)(F)CC(C)C (stereo not shown) [Example I-49] :: 3.47
CCC(CC)c1ccccc1NC(=O)c1c(C)nn(C)c1F [Example 2] :: 3.01

[P] CC(C)=CC(C)CCC(C)c1ccccc1NC(=O)c1c(C)nn(C)c1F (stereo not shown) [Example I-37]
[Q] CCCC(C)c1cc(F)ccc1NC(=O)c1c(C)nn(C)c1F (stereo not shown) [Example I-43]
[R] C=Cc1ccccc1NC(=O)c1c(C)nn(C)c1F [Example I-20]
Rank the items in ascending order with respect to chromatographic logP. Respond with an ordered listing of the labels, as requested. R, Q, P

[P] Cc1nn(C)c(F)c1C(=O)Nc1ccccc1C(C)CC1CCCCC1 (stereo not shown) [Example I-45]
[Q] Cc1nn(C)c(F)c1C(=O)Nc1ccccc1C=CC1CC1(F)F (stereo not shown) [Example 4]
Kindly identify which of P and Q has the larger recorded chromatographic logP value. Please indicate the selected item by its label. P

[1] Cc1nn(C)c(F)c1C(=O)Nc1ccccc1C(C)(O)C1CCCCC1 (stereo not shown) [IV-4]
[2] Cc1nn(C)c(F)c1C(=O)Nc1c(C(C)CC(C)C)cccc1C(C)CC(C)C (stereo not shown) [Example I-54]
[3] CC(=O)c1ccccc1NC(=O)c1c(C)nn(C)c1F [VIII-1]
Output the entries ranked by chromatographic logP from maximum down to minimum. Respond with an ordered listing of the labels, as requested. 2, 1, 3

[1] Cc1nn(C)c(F)c1C(=O)Nc1c(F)cccc1C(C)CC(C)C (stereo not shown) [Example I-44]
[2] CCCCCCCCC(C)c1ccccc1NC(=O)c1c(C)nn(C)c1F (stereo not shown) [Example I-30]
Returns the identifier with the smallest measured chromatographic logP among 1 and 2 . Please indicate the selected item by its label. 1
(1: 3.16, 2: 5.29)
